B1: Atg40^234–252 peptide [S. cerevisiae] / Atg8 (1-116) K26P [S. cerevisiae] (parent complex)
chain 1: TSTEFPNDYDFMEDILDET
chain 2: MKSTFKSEYPFEKRKAESERIADRFPNRIPVICEKAEKSDIPEIDKRKYLVPADLTVGQFVYVIRKRIMLPPEKAIFIFVNDTLPPTAALMSAIYQEHKDKDGFLYVTYSGENTFG

Variants of: B1
Test: ITC
value kind: pKd
The read-out pKd is expressed as -log10 of concentration in moles per litre.

[Q] Supply measured pKd of chain 2 MKSTFKSEYPFEKRKAESERIADRFPNRIPVICEKAEKSDIPEIDKRKYLVPADLTVGQFVYVIRKAIMLPPEKAIFIFVNDTLPPTAALMSAIYQEHKDKDGFLYVTYSGENTFG [chain 2 R67A] in your reply.
[A] 4.61

Source: paper PMC7335187
